test system: UACC-62 melanoma; assay: NCI tumour cell line growth inhibition, 48 h
Here, each record is paired with measured TGI data.

COMPOUND: CCOC(=O)C1C(c2cc(OC)c(O)c(OC)c2)c2cc3c(cc2OC1(C)O)OCO3 (stereo not given)
QUANTITY_UNIT: µM
OP: >
TGI: 100
--
COMPOUND: CC(=O)[CH-]C(=O)c1ccccc1.CC(=O)[CH-]C(=O)c1ccccc1.[O]=[U+2]=[O]
QUANTITY_UNIT: µM
OP: >
TGI: 100
--
COMPOUND: COC(=O)/C(C#N)=C1\N=NNN1CCCN1CCOCC1
QUANTITY_UNIT: µM
OP: >
TGI: 100
--
COMPOUND: COc1cc(C(c2cc3c(cc2O)OCO3)N2CCCC2)cc(OC)c1OC (stereo not given)
QUANTITY_UNIT: µM
OP: =
TGI: 33.9
--
COMPOUND: O=C(CCCCCCCCCCc1ccccc1)c1c(O)cccc1O
QUANTITY_UNIT: µM
OP: =
TGI: 36.2
